# Test name: protein stability index of a GFP-peptide fusion (yeast GPS) (PSI 1-4); higher = more stable; sorted into four equal gates, so the index is relative within each strain
# Condition set: ubr1∆
The label depends only on protein stability index: 1 if it is at least 3, -1 if it is smaller.

Consider the worked cases shown below.
>  <Chain sequence>
VAGAGAASGAAAAGGDA [RPP1B]

>  <Category label>
-1

$$$$
>  <Chain sequence>
RSKFLSTVAKFLARVIK [IRR1]

>  <Category label>
-1

$$$$
>  <Chain sequence>
RRRAFKRSQKKHKKKHL [RPB4]

>  <Category label>
1

$$$$
>  <Chain sequence>
DHLKLVSLFSNLRHERN [YIL149C/MLP2]

>  <Category label>
-1

$$$$
>  <Chain sequence>
NGITLALIDAGISMFDY [SKI6]

>  <Category label>
-1

$$$$

Kindly determine if protein stability index recorded for AGTTDNSFIKANLPWLG [RPN2] is above or exactly 3.
-1

What would you report for DQQSPWLLRLELDRAAM [RPO21] ?
-1

Request: DISAMQPVNPKPFLKGL [SMX3]
1

Now consider QPTGLLKGLNGFPSAPQ [YMR153W/NUP53] .
1

Then this sequence: VNEIMYKCTAAMEKYLL [MTW1]
-1
